Recorded values, source patent US20220033454A1.

measured.on: T1, endogenous IL-22 receptor on AsPC-1 cells (UniProt Q8N6P7 16-574, limits assumed)
T1 sequence (looked up): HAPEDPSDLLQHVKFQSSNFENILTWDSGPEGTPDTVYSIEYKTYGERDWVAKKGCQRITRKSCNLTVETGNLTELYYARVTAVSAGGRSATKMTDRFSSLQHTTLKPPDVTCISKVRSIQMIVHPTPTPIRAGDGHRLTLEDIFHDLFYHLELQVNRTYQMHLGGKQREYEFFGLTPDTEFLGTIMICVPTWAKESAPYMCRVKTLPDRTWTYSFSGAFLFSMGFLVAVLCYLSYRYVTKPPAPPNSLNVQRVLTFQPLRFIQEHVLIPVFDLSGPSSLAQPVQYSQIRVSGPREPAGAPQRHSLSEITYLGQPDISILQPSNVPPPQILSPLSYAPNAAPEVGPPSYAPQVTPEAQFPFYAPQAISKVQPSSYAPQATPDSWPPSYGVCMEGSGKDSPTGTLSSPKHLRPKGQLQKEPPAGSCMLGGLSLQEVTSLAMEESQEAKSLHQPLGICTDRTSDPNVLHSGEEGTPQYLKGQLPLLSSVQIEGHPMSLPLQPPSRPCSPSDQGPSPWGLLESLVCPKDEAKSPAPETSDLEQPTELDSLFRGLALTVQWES
method: cell-based or functional assay
measured.endpoint: EC50 of STAT3 phosphorylation (phospho-STAT3 Tyr705 HTRF) in AsPC-1 cells (µM)
Expressed in µM, but write only the number.

Exercise: For the binder mIL-22-anti-HSA A4 (other, Single-chain fusion, expressed in ExpiCHO cells) LPVNTRCKLEVSNFQQPYIVNRTFMLAKEASLADNNTDVRLIGEKLFRGVSAKDQCYLMKQVLNFTLEDVLLPQSDRFQPYMQEVVPFLTKLSNQLSSCHISGDDQNIQKNVRRLKETVKKLGESGEIKAIGELDLLFMSLRNACVSGGGGSGGGGSGGGGSQVQLVESGGGVVQPGGSLRLSCAASGFAFRGFGMSWVRQAPGKGLEWVSSINNGGSDTYYADSVKGRFTISRDNSKNTLYLQMNSLRAEDTAVYYCAIGGPGASPSGQGTQVTVSS , report EC50 of STAT3 phosphorylation (phospho-STAT3 Tyr705 HTRF) in AsPC-1 cells.
Solution: 0.6
